# TARGET OR TEST SYSTEM: T1, HLA-A*0201 on T2 cells (human)
# T1 construct: whole, on cells; Class I MHC on the surface of T2 cells, detected with a fluorescent anti-A2 antibody; beta2-microglobulin is not mentioned for this assay; also called MHC class I (A2 allele)
# TEST: T2 cells, wild-type/analog half-maximal binding
REPORTED ENDPOINT: Relative affinity (1/RA)

Worked cases, Relative affinity (1/RA) given:
BINDER	REPORTED ENDPOINT	OBSERVED
WMSEKIFYV [SSX2 41-49 (K41W, A42M)]	Relative affinity (1/RA)	2.9 1/RA
WLSEKIFYV [SSX2 41-49 (K41W, A42L)]	Relative affinity (1/RA)	3.3 1/RA

Hi, could you look up Relative affinity (1/RA) for each item in my list?
1. WVSEKIFYV [SSX2 41-49 (K41W, A42V)]
2. YLSEKIFYV [SSX2 41-49 (K41Y, A42L)]
3. FISEKIFYV [SSX2 41-49 (K41F, A42I)]

1: 3 1/RA; 2: 1.2 1/RA; 3: 2.7 1/RA

Hi, could you look up Relative affinity (1/RA) for each item in my list?
1. YMSEKIFYV [SSX2 41-49 (K41Y, A42M)]
2. FVSEKIFYV [SSX2 41-49 (K41F, A42V)]

0.6 1/RA
3.1 1/RA

Every entry's value here was drawn from patent US7511119B2.
